Listing: pest or weed control at 250 g/ha of selected compounds
# Tested on: Lolium perenne (LOLPE)
# protocol_summary: Glasshouse assay for herbicidal activity (pre- and post-emergence), percentage phytotoxicity
# Assay type: in vivo
# test_settings: Lolium perenne, pre-emergence, 480 h, PRE-emergence, rate 250 g/ha, visual score 20 DAA (100%=total damage, 0%=no damage); read-out: Pre-emergence herbicidal activity (percentage phytotoxicity) LOLPE PRE
# output: bare number, implied unit %

// worked examples, pest or weed control at 250 g/ha included
C=C(F)CNC(=O)CC1CC(=O)C(c2c(C)cc(-c3ncc(F)cc3F)cc2C)C1=O (centres unmarked) [Compound B304]	100
CCc1cc(C)cc(C)c1C1C(=O)CC(CC(=O)NCc2ccc(C#N)cc2)C1=O (centres unmarked) [Compound B254]	90
C/C=C/CNC(=O)CC1CC(=O)C(c2c(C)cc(Br)cc2C)C1=O (centres unmarked) [Compound B177]	90
CCc1cc(-n2cc(Cl)cn2)cc(C)c1C1C(=O)CC(CC(=O)NCc2cccc(Cl)c2)C1=O (centres unmarked) [Compound B231]	80
CCc1cc(-n2cc(Cl)cn2)cc(C)c1C1C(=O)CC(CC(=O)N(C)CC)C1=O (centres unmarked) [Compound B238]	100

*Q* Query (compound): C=CC(C)NC(=O)CC1CC(=O)C(c2c(C)cc(-c3ncc(Cl)cc3F)cc2C)C1=O (centres unmarked) [Compound B300] ; field requested: pest or weed control at 250 g/ha
*A* 100

*Q* Try this compound too: CC#Cc1cc(C)c(C2C(=O)CC(CC(=O)NCc3cccc(Cl)c3)C2=O)c(C)c1 (centres unmarked) [Compound B182]
*A* 100

*Q* Next entry: CCNC(=O)CC1CC(=O)C(c2c(C)cc(-c3ncc(F)cn3)cc2C)C1=O (centres unmarked) [Compound B277]
*A* 100

* * *

Item-by-item account of pest or weed control at 250 g/ha
# Test system: Lolium perenne (LOLPE)
# protocol_summary: Glasshouse assay for herbicidal activity (pre- and post-emergence), percentage phytotoxicity
# Type: in vivo
# test_settings: Lolium perenne, pre-emergence, 480 h, pre-emergence, 250 g/ha, 20 DAA, visual score (100%=total damage; 0%=no damage); read-out: LOLPE PRE herbicidal activity (percentage phytotoxicity)
Kindly answer with a numeric value in %, unit omitted.

Observe how each entry below is paired with its result.
Cc1cc(C)c(C2C(=O)CC(CC(=O)NCC3(F)COC3)C2=O)c(C)c1 (stereo not drawn) [Compound A180]	0
Cc1cc(C)c(C2C(=O)CC(CC(=O)NC3CC(F)C3)C2=O)c(C)c1 (stereo not drawn) [Compound A181]	100

*Q* Lookup: pest or weed control at 250 g/ha / Lolium perenne (LOLPE) / Cc1cc(C)c(C2C(=O)CC(CC(=O)NC3CC(F)(F)C3)C2=O)c(C)c1 (stereo not drawn) [Compound A185]
*A* 70

*Q* Would you mind doing Cc1cc(C)c(C2C(=O)CC(CC(=O)NCC3CCC3)C2=O)c(C)c1 (stereo not drawn) [Compound A184] as well?
*A* 90

*Q* Try Cc1cc(-c2ncc(Cl)cn2)cc(C)c1C1=C(OC(=O)C(C)(C)C)CC(CC(=O)NC(C)(C)C)C1=O (stereo not drawn) [Compound P3] next.
*A* 100

*Q* Try the compound Cc1cc(C)c(C2C(=O)CC(CC(=O)N3CC(C)CC(C)C3)C2=O)c(C)c1 (stereo not drawn) [Compound A173]
*A* 80
